# growth values compiled below
tested on: HT29 colon; test: NCI-60 one-dose screen, 48 h (100 = growth as untreated, 0 = no growth, -100 = all killed); conditions: 10 µM unless noted
Compounds without any hit were thinned out: in the full panel of roughly 83,000, 20% have a hit. Calls of active or inactive are those of the source. The calls were made as follows: active = growth percent below 10; inactive = the rest.

Known results for compounds:
compound=COc1ccc(C(=O)COc2cccc(/C=C3\CSc4ccc(C)cc4C3=O)c2)cc1 target_or_system="HT29 colon" obs_value="101% (inactive)"
compound=COc1ccc(/C=C(\C#N)c2ccc(OC)cc2)cc1 target_or_system="HT29 colon" obs_value="35.6% (inactive)"
compound=CN1CCN(C)c2cncc(Br)c2C1=O target_or_system="HT29 colon" obs_value="107% (inactive)"
compound=CN([N-]C(=O)CC(=O)[N-]N(C)C(=S)c1ccccc1)C(=S)c1ccccc1.[Cu+2] target_or_system="HT29 colon" obs_value="-77.8% (active)"

Now consider the entry below.
Give me measured growth, please, for this compound: `O=C1/C(=C/c2ccc(Oc3ccccc3)cc2)N=C(c2ccccc2)N1CCc1cccs1`
35% (inactive)

---

tested on: MCF7 breast; assay: NCI-60 one-dose screen, 48 h; conditions: 10 µM unless noted
Compounds without any hit were thinned out: in the full panel of roughly 83,000, 20% have a hit. Calls of active or inactive are those of the source. How the source made its calls: active means growth percent below 10; inactive means the rest.
Valid outcomes are listed here; reply with one: Y = active, N = inactive

compound="CCC(C)[C@H]1O[C@]2(CC[C@@H]1C)C[C@@H]1C[C@@H](C/C=C(\\C)[C@@H](OC3C[C@H](OC)C(O[C@H]4C[C@H](OC)[C@@H](O)[C@H](C)O4)[C@H](C)O3)[C@@H](C)/C=C/C=C3\\CO[C@@H]4[C@H](O)C(C)=C[C@@H](C(=O)O1)[C@]34O)O2 (some centres undefined)" target_or_system="MCF7 breast" assigned_category=Y

Each compound tested received a call. Report the one for `COc1ccc(/C=C(\C#N)c2ccc(OC)cc2)cc1` .
N

Each compound tested received a call. Report the one for `CCOC(=O)c1c(-c2cc(OC)c(OC)c(OC)c2)csc1N` .
N

Each compound tested received a call. Report the one for O=C1OCC2=C1C(c1ccc3c(c1)OCO3)CC(=O)N2c1cccc(Cl)c1 (centres undefined) .
N

---

# growth values compiled below
test system: CCRF-CEM leukemia; experiment: NCI-60 one-dose screen, 48 h (100 = growth as untreated, 0 = no growth, -100 = all killed); conditions: 10 µM unless noted
The panel holds about 83,000 compounds, 20% with a hit somewhere; the sample as a whole holds those more often. The source made the active and inactive calls. The calls were made as follows: active = growth percent below 10; inactive = the rest.

compound=FC(F)(F)c1cc(CNc2ncc(Br)c(Cl)n2)cc(C(F)(F)F)c1 value_kind=growth obs_value="83.2% (inactive)"
compound=NS(=O)(=O)c1cc(Br)c2c(c1)S(=O)(=O)NCN2 value_kind=growth obs_value="99.7% (inactive)"
compound=NC(=O)c1cc(I)ccc1NC(=O)COc1ccccc1 value_kind=growth obs_value="4.81% (active)"
compound=CN1CCc2c(Sc3ccc(C(=O)NO)cc3)c3ccccc3n2C1 value_kind=growth obs_value="3.13% (active)"
compound=O=c1[nH]c(-c2ccccn2)nc2sc3c(c12)CCCCCC3 value_kind=growth obs_value="32.6% (inactive)"

Consider the compound O=C1NC(=O)C2(CCCC2C(=O)O)N1 (stereo not given) tested on CCRF-CEM leukemia; state its growth.
91.8% (inactive)

Consider the compound `COc1cc2cc(Oc3ccc(NC(=O)Nc4ccc(Cl)c(C(F)(F)F)c4)cc3)c(C)nc2cc1OCCN1CCCCC1` tested on CCRF-CEM leukemia; state its growth.
3.86% (active)

Consider the compound `Brc1ccc(Br)nn1` tested on CCRF-CEM leukemia; state its growth.
-13.5% (active)

Consider the compound `COc1nc2c(cc1S(=O)(=O)c1ccccc1)CCc1c-2cnn1-c1ccccc1Cl` tested on CCRF-CEM leukemia; state its growth.
60.8% (inactive)

Consider the compound Cc1ccc(S(=O)(=O)N2CCc3ccc(O)c4c3C2Cc2cc(Cl)ccc2-4)cc1 (stereo not given) tested on CCRF-CEM leukemia; state its growth.
94% (inactive)

Consider the compound `COc1ncnc2c1ncn2C/C(Br)=C(\Br)CCl` tested on CCRF-CEM leukemia; state its growth.
-38.7% (active)

---

Test system: MDA-MB-435 melanoma
Experiment: NCI-60 one-dose screen, 48 h (100 = growth as untreated, 0 = no growth, -100 = all killed)
Conditions: 10 µM unless noted
Method: Growth inhibition of the MDA-MB-435 human Melanoma tumor cell line is measured as a screen for anti-cancer activity. Cells are grown in 96 well plates and exposed to the test compound for 48 hours. Compounds are tested at a single concentration, which is 10^-5 M for most compounds. The reported endpoint is percent growth (GI% or GIPRCNT), where numbers from 0 - 100% represent growth inhibition, and numbers from -100% - 0 represent cell death. […]
Compounds without any hit were thinned out: in the full panel of roughly 83,000, 20% have a hit.
value-kind: growth (%)
Field format: number, assumed %, no unit text.

Known results for compounds:
compound=CN1CCn2c(c(Sc3ccc(C(=O)NO)cc3)c3ccccc32)C1=O obs_value=-74.6
compound=O=C(Nc1ccc(F)cc1)c1ccc(C(=O)Nc2ccc(F)cc2)cc1 obs_value=101
compound=COC(=O)c1c2c(c(C)[n+]([O-])c1C)C(=O)C(NCc1ccc(O)cc1)=CC2=O obs_value=-96.5
compound=COc1ccc(-c2nc3sccn3c2/C=C/C(=O)c2cc(OC)c(OC)c(OC)c2)cc1OC obs_value=-30.5
compound="CCCCC(O)Cn1ncc(C(=O)OCC)c1NC(=O)NCc1ccccc1C(F)(F)F (stereo not drawn)" obs_value=99.5

Now consider the entry below.
Give me measured growth, please, for this compound: `Cc1ccc(N=c2nc3sc4c(C)ccc(C)c4n3c(N)c2C#N)cc1`
110

---

test system: SR leukemia; assay: NCI-60 one-dose screen, 48 h; settings: 10 µM unless noted
Compounds without any hit were thinned out: in the full panel of roughly 83,000, 20% have a hit. Active and inactive are the calls of the source. How the source made its calls: active means growth percent below 10; inactive means the rest.
Valid outcomes are listed here; reply with one: active, inactive

molecule=CCN(CC)CCCNc1ccc(C)c2sc3ccccc3c(=O)c12 assigned_category=active
molecule=CSC1=CC(=O)c2ccccc2C1=O assigned_category=active
molecule=CS(=O)(=O)Nc1cccc(C(=O)NCc2ccc(N3CCOCC3)cc2)c1 assigned_category=inactive

Each molecule tested received a call. Report the one for CCOC(=O)c1cn2c3c(cc(F)cc3c1=O)C(CC)c1ccccc1C2 (stereo unspecified) .
inactive

Each molecule tested received a call. Report the one for O=C1CCC(N2Cc3c(C#CCCCNC(=O)c4cc5c(o4)C(=O)c4ccccc4C5=O)cccc3C2=O)C(=O)N1 (stereo unspecified) .
inactive

Each molecule tested received a call. Report the one for `CC1(C)N=C(N)N=C(N)N1c1cccc(/C=C/C=C/c2cccc([N+](=O)[O-])c2)c1` .
inactive

Each molecule tested received a call. Report the one for `FC(F)(F)c1cc(CNc2nc(Cl)ncc2Br)cc(C(F)(F)F)c1` .
inactive

Each molecule tested received a call. Report the one for `Fc1c[c-]c(-c2ccccn2)c(F)c1.Fc1c[c-]c(-c2ccccn2)c(F)c1.[Cl][Pt+].[Cl][Pt+].c1ccc([PH+](C[PH+](c2ccccc2)c2ccccc2)c2ccccc2)cc1` .
inactive

Each molecule tested received a call. Report the one for `O=C1/C(=C/c2ccc(Oc3ccccc3)cc2)N=C(c2ccccc2)N1CCc1cccs1` .
inactive

Each molecule tested received a call. Report the one for `Cc1nn(CC(=O)O)c2c1C(=O)CC(C)(C)C2` .
inactive

Each molecule tested received a call. Report the one for `Cc1ccc(N(CSc2ccc(Cl)cc2)CSc2ccc(Cl)cc2)cc1` .
inactive

Each molecule tested received a call. Report the one for `Cn1c2c(cc(S(=O)(=O)c3ccccc3)c1=O)CCc1c-2cnn1-c1ccccc1Cl` .
inactive

---

# growth values compiled below
test system: HCC-2998 colon; experiment: NCI-60 one-dose screen, 48 h (100 = growth as untreated, 0 = no growth, -100 = all killed); settings: 10 µM unless noted
Compounds without any hit were thinned out: in the full panel of roughly 83,000, 20% have a hit. The source made the active and inactive calls. How the source made its calls: active means growth percent below 10; inactive means the rest.

Known results for molecules:
compound=CCCCC(CCCC)(S(=O)(=O)CC)S(=O)(=O)CC obs_value="111% (inactive)"
compound=COc1cc(NC(=O)COc2ccccc2)c(C(N)=O)cc1OC obs_value="47.1% (inactive)"
compound=Cc1c(C(=O)Nc2nc(-c3ccccc3)cs2)nnn1-c1ccccc1Br obs_value="72.7% [50 µM] (inactive)"

Now consider the entry below.
Give me measured growth, please, for this molecule: `Cc1nc2cc(Nc3nc(N4CCOCC4)nc(N4CCN(C)CC4)n3)ccc2n1Cc1ccccc1`
113% (inactive)

---

system: OVCAR-8 ovarian; test: NCI-60 one-dose screen, 48 h (100 = growth as untreated, 0 = no growth, -100 = all killed); conditions: 10 µM unless noted
Compounds without any hit were thinned out: in the full panel of roughly 83,000, 20% have a hit.
just bin them by growth: zone 1: < 30%; zone 2: ≥ 30% and < 90%; zone 3: ≥ 90%

Some entries whose results are on file:
molecule=CCCCCCCCCCCCCCCC[N+]1(C)CCOCC1 assigned_category="zone 1"
molecule="C=C[C@H]1C[C@@H]2C[C@@H]3[C@H]4C/C=C\\C(=O)NCCCC5NC(=O)C(=C(O)/C=C/[C@@H]4CC(=O)[C@H]3[C@@H]2[C@H]1C)C5=O (some centres undefined)" assigned_category="zone 1"
molecule="O=C(c1ccccc1)C(Br)C(Br)c1cccc([N+](=O)[O-])c1 (centres undefined)" assigned_category="zone 1"
molecule=O=C1/C(=C/c2ccc(Cl)cc2)N=C(c2ccccc2)N1CCc1cccs1 assigned_category="zone 2"
molecule=COc1ccc(/C=C2\SC(=O)N(CN3CCN(c4cc5c(cc4F)c(=O)c(C(=O)O)cn5C4CC4)CC3)C2=O)cc1 assigned_category="zone 3"

--- query ---
Looking at `COc1cc(-c2nc3ccccc3o2)cc(CN2CCN(c3ccccc3)CC2)c1O` , which class would you pick?
zone 2

Each recorded value in this set is attributed to PubChem BioAssay (NCI).
